Source: PubChem BioAssay AID1918944

tested on: 786-0 complex spheroid viability; assay: Anticancer human tumor 786-0 cell line growth inhibition; details: second compound 10 µM; first compound 0.1 µM; stronger effect = lower value;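 further: spheroids exposed to agents for seven days before readout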
Reported viability, T/C values for the following molecules.
Express the result in % but write the number alone.

COc1ccc([C@@H](O)c2cc(-c3ncnc4cc(N5CCOCC5)ccc34)c(F)cc2Cl)nn1 + NC1CC1c1ccc(-c2cccc(O)c2)cc1 : 84.5
CC[C@@]1(O)C(=O)OCc2c1cc1n(c2=O)Cc2cc3c(CN(C)C)c(O)ccc3nc2-1 + NC1CC1c1ccc(-c2cccc(O)c2)cc1 : 2.9
O=C(C=Cn1cnc(-c2cc(C(F)(F)F)cc(C(F)(F)F)c2)n1)NNc1cnccn1 + NC1CCC(NC2CC2c2ccccc2)CC1 : 35.1
O=C(C=Cn1cnc(-c2cc(C(F)(F)F)cc(C(F)(F)F)c2)n1)NNc1cnccn1 + NC1CC1c1ccc(-c2cccc(O)c2)cc1 : 39.4
Cn1ncnc1C1c2n[nH]c(=O)c3cc(F)cc(c23)NC1c1ccc(F)cc1 (configuration not stated) + NC1CCC(NC2CC2c2ccccc2)CC1 : 84.1

Under 786-0 complex spheroid viability: viability, T/C value of CC(C)CC(NC(=O)CNC(=O)c1cc(Cl)ccc1Cl)B1OC(=O)CC(CC(=O)O)(C(=O)O)O1 (configuration not stated) + NC1CCC(NC2CC2c2ccccc2)CC1 ? 7.29

// lookup viability, T/C | system=786-0 complex spheroid viability | key= CC1COCCN1c1cc(-c2ccnn2C)c2ccnc(-c3ccn[nH]3)c2n1 (configuration not stated) + NC1CCC(NC2CC2c2ccccc2)CC1 5.5

---

system: 786-0 complex spheroid viability; experiment: Anticancer human tumor 786-0 cell line growth inhibition; settings: second compound 0.316 µM; first compound 0.949 µM; stronger effect = lower value;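 further: spheroids exposed to agents for seven days before readout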
// values below are reported viability, T/C
Your answer should be a plain number; it is taken to be in %.

Consider the reported viability, T/C for these molecules:
COc1cc(C2c3cc4c(cc3C(OC3OC5COC(C)OC5C(O)C3O)C3COC(=O)C23)OCO4)cc(OC)c1O (centres undefined) + NC1CCC(NC2CC2c2ccccc2)CC1 : 19.4
NS(=O)(=O)OCC1CC(n2ccc3c(NC4CCc5ccccc54)ncnc32)CC1O (centres undefined) + NC1CC1c1ccc(-c2cccc(O)c2)cc1 : 9.34
Nc1ccccc1NC(=O)c1ccc(CNC(=O)OCc2cccnc2)cc1 + NC1CC1c1ccc(-c2cccc(O)c2)cc1 : 78.8

# lookup: viability, T/C of COc1cc(C2c3cc4c(cc3C(OC3OC5COC(C)OC5C(O)C3O)C3COC(=O)C23)OCO4)cc(OC)c1O (centres undefined) + NC1CC1c1ccc(-c2cccc(O)c2)cc1 25.8

---

system: 786-0 complex spheroid viability; assay: Anticancer human tumor 786-0 cell line growth inhibition; details: second compound 10 µM; first compound 0.1 µM; active = viability on the fitted dose curve at most 10% of control; inactive = the rest;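 further: spheroids exposed to agents for seven days before readout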
// classify into yes = active, no = inactive

CC(C)CC(NC(=O)CNC(=O)c1cc(Cl)ccc1Cl)B1OC(=O)CC(CC(=O)O)(C(=O)O)O1 (configuration not stated) + NC1CC1c1ccc(-c2cccc(O)c2)cc1 : no
COc1cc(Nc2ncc3c(n2)-c2ccc(Cl)cc2C(c2c(F)cccc2OC)=NC3)ccc1C(=O)O + NC1CC1c1ccc(-c2cccc(O)c2)cc1 : no
CC(C)CC(NC(=O)C(Cc1ccccc1)NC(=O)c1cnccn1)B(O)O (configuration not stated) + NC1CCC(NC2CC2c2ccccc2)CC1 : yes
O=C(c1cc(Cc2n[nH]c(=O)c3ccccc23)ccc1F)N1CCN(C(=O)C2CC2)CC1 + NC1CC1c1ccc(-c2cccc(O)c2)cc1 : no
CC(C)c1c(-c2ccccc2)nc2c(C#N)c[nH]n2c1=O + NC1CCC(NC2CC2c2ccccc2)CC1 : no

Dear colleague, could you share the recorded outcome for CC(C)CC(NC(=O)C(Cc1ccccc1)NC(=O)c1cnccn1)B(O)O (configuration not stated) + NC1CC1c1ccc(-c2cccc(O)c2)cc1 when you have a moment? yes

Write down the call the test reported for this molecule. Item: COc1ccc([C@@H](O)c2cc(-c3ncnc4cc(N5CCOCC5)ccc34)c(F)cc2Cl)nn1 + NC1CCC(NC2CC2c2ccccc2)CC1 no

---

Catalogue of IC50 readings, one per entry.
test system: 786-0 complex spheroid viability; assay: Anticancer human tumor 786-0 cell line growth inhibition; conditions: curve of first compound; second compound 0.316 µM;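 further: spheroids exposed to agents for seven days before readout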
Output spec: scalar in nM, unitless text.

The examples below pair each entry with its known result.
O=C(C=Cn1cnc(-c2cc(C(F)(F)F)cc(C(F)(F)F)c2)n1)NNc1cnccn1 + NC1CC1c1ccc(-c2cccc(O)c2)cc1 : 34.3
COc1ccc([C@@H](O)c2cc(-c3ncnc4cc(N5CCOCC5)ccc34)c(F)cc2Cl)nn1 + NC1CC1c1ccc(-c2cccc(O)c2)cc1 : 4960
O=C(C=Cc1cccc(S(=O)(=O)Nc2ccccc2)c1)NO + NC1CC1c1ccc(-c2cccc(O)c2)cc1 : 1300
CC1COCCN1c1cc(C2(S(C)(=N)=O)CC2)nc(-c2ccnc3[nH]ccc23)n1 (centres undefined) + NC1CC1c1ccc(-c2cccc(O)c2)cc1 : 1020

Which IC50 value is on record for CC(C)CC(NC(=O)C(Cc1ccccc1)NC(=O)c1cnccn1)B(O)O (centres undefined) + NC1CCC(NC2CC2c2ccccc2)CC1 ? 2.56

What value of IC50 has been recorded for this entry: Nc1ncn(C2CC(O)C(CO)S2)c(=O)n1 (centres undefined) + NC1CCC(NC2CC2c2ccccc2)CC1 207

For COc1cc(Nc2ncc3c(n2)-c2ccc(Cl)cc2C(c2c(F)cccc2OC)=NC3)ccc1C(=O)O + NC1CCC(NC2CC2c2ccccc2)CC1 , what is its reported IC50? 480

Bench note: what IC50 did O=C(C=Cn1cnc(-c2cc(C(F)(F)F)cc(C(F)(F)F)c2)n1)NNc1cnccn1 + NC1CCC(NC2CC2c2ccccc2)CC1 show? 20.2

May I ask what IC50 has been recorded for Nc1ccccc1NC(=O)c1ccc(CNC(=O)OCc2cccnc2)cc1 + NC1CC1c1ccc(-c2cccc(O)c2)cc1 ? 1770

---

Test system: 786-0 complex spheroid viability
Assay: Anticancer human tumor 786-0 cell line growth inhibition; active means viability on the fitted dose curve at most 10% of control; inactive means the rest;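 further: spheroids exposed to agents for seven days before readout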
Conditions: second compound 0.316 µM; first compound 0.949 µM
Description: Multicellular complex tumor spheroid response to LSD1 Inhibitor Iadademstat in combination with a variety of drugs and investigational agents in selected tumor cell lines The current study was undertaken to assess response to LSD1 inhibitors in combination with standard-of-care drugs and investigational agents in solid tumor complex spheroid models as well as in the K-562 leukemia. […] Compounds. […] If the clinical Cmax for an agent had not been determined, the highest concentration tested was 10 microM. […]
I would appreciate it if you answered using one of these outcomes: 1 = active, -1 = inactive

Use these answered entries as a reference point.
O=C(C=Cc1cccc(S(=O)(=O)Nc2ccccc2)c1)NO + NC1CC1c1ccc(-c2cccc(O)c2)cc1 : -1
O=C(C=Cc1cccc(S(=O)(=O)Nc2ccccc2)c1)NO + NC1CCC(NC2CC2c2ccccc2)CC1 : -1

Pending compound:
Each compound tested received a call. Report the one for CCN(c1cc(-c2ccc(CN3CCOCC3)cc2)cc(C(=O)NCc2c(C)cc(C)[nH]c2=O)c1C)C1CCOCC1 + NC1CC1c1ccc(-c2cccc(O)c2)cc1 . -1

---

test system: 786-0 complex spheroid viability; assay: Anticancer human tumor 786-0 cell line growth inhibition; conditions: second compound 0.316 µM; first compound 0.1 µM; stronger effect = lower value;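 further: spheroids exposed to agents for seven days before readout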
parameter: viability, T/C (%)
The reply should contain only the number, in %.

O=C(C=Cn1cnc(-c2cc(C(F)(F)F)cc(C(F)(F)F)c2)n1)NNc1cnccn1 + NC1CCC(NC2CC2c2ccccc2)CC1 : 30.7

Give viability, T/C (786-0 complex spheroid viability) of the following molecule: Cn1ncnc1C1c2n[nH]c(=O)c3cc(F)cc(c23)NC1c1ccc(F)cc1 (stereo not given) + NC1CCC(NC2CC2c2ccccc2)CC1 113

Notebook: pull reported viability, T/C for 786-0 complex spheroid viability, entry CC(C)c1c(-c2ccccc2)nc2c(C#N)c[nH]n2c1=O + NC1CC1c1ccc(-c2cccc(O)c2)cc1 117

786-0 complex spheroid viability / viability, T/C / COc1cc(Nc2ncc3c(n2)-c2ccc(Cl)cc2C(c2c(F)cccc2OC)=NC3)ccc1C(=O)O + NC1CCC(NC2CC2c2ccccc2)CC1 : value? 65.9

Can you look up viability, T/C on 786-0 complex spheroid viability for CC1COCCN1c1cc(C2(S(C)(=N)=O)CC2)nc(-c2ccnc3[nH]ccc23)n1 (stereo not given) + NC1CC1c1ccc(-c2cccc(O)c2)cc1 ? 110

Report viability, T/C for COc1ccc([C@@H](O)c2cc(-c3ncnc4cc(N5CCOCC5)ccc34)c(F)cc2Cl)nn1 + NC1CC1c1ccc(-c2cccc(O)c2)cc1 tested on 786-0 complex spheroid viability. 110

---

system: 786-0 complex spheroid viability; experiment: Anticancer human tumor 786-0 cell line growth inhibition; settings: curve of first compound; second compound 0.316 µM;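 further: spheroids exposed to agents for seven days before readout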
IC50: recorded values
Write down the numeric answer in nM and omit the unit.

# example entries with known answers
NS(=O)(=O)OCC1CC(n2ccc3c(NC4CCc5ccccc54)ncnc32)CC1O (configuration not stated) + NC1CC1c1ccc(-c2cccc(O)c2)cc1 : 178
CC[C@@]1(O)C(=O)OCc2c1cc1n(c2=O)Cc2cc3c(CN(C)C)c(O)ccc3nc2-1 + NC1CC1c1ccc(-c2cccc(O)c2)cc1 : 4.87

Then there is this compound:
Consider the compound CC[C@@]1(O)C(=O)OCc2c1cc1n(c2=O)Cc2cc3c(CN(C)C)c(O)ccc3nc2-1 + NC1CCC(NC2CC2c2ccccc2)CC1 and give its measured IC50. 5.13
